Each entry below carries its reported log10 of accession rate.
# Protocol details: Corneal permeability rate constant (kin) across freshly excised bovine corneas in vitro; accession rate
# Type: in vitro ADME
Response schema: value (number) is log10 of accession rate in units of µM/h.

Field: example entries. Status: answers known.
CCOC(=O)C(=O)Nc1nnc(S(N)(=O)=O)s1 [Example 5, Ethyloxaloylazolamide]    2.49
CCOC(=O)CCC(=O)Nc1nnc(S(N)(=O)=O)s1 [Example 6, Ethylsuccinylazolamide]    1.96
CCOC(=O)CCCCC(=O)Nc1nnc(S(N)(=O)=O)s1 [Example 7]    1.41

Quick check: log10 of accession rate of NS(=O)(=O)c1nnc(N2C(=O)C=CC2=O)s1 [Example 3, Maleimidiazolamide] ?
1.03

And for NS(=O)(=O)c1nnc(N2C(=O)CCC2=O)s1 [Example 2, Succinylimidazolamide] ?
1.32

Every entry's value here was drawn from patent US5242937A.
